Data credit: patent US20230279025A1

- Measured On: KRas G12D (Homo sapiens (Human), UniProt P01116, G12D)
- Protocol Summary: KRas G12D Binding Assay (TR-FRET displacement of Cy5 labelled tracer)
- Setup Conditions: GDP-loaded KRAS G12D (amino acids 1:169), 60 minute incubation at 22° C.
- Sequence (P01116 other isoform, or with tags, fused parts or gaps G12D): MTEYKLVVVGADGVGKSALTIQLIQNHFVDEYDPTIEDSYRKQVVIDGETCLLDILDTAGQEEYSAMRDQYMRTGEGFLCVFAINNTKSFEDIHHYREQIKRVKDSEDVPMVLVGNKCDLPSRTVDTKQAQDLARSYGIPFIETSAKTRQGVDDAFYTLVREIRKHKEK
Endpoint Label: log10 of IC50 (log10 of the value in µM)
Values below are the log10 of the recorded IC50, with µM as the unit.

Please fill in: log10 of IC50 reported for Fc1c(-c2cccc3cccc(Cl)c23)ncc2c(N3C[C@H]4CC[C@@H](C3)N4)nc(OC3CCc4[nH]ncc4C3)nc12 (stereo partly shown) [Example 142] = 0.95

Please fill in: log10 of IC50 reported for CO[C@H]1CN2CCC[C@]2(COc2nc(N3CC4CCC(C3)N4)c3cnc(-c4cccc5cccc(Cl)c45)c(F)c3n2)C1 [Example 225] = -2.04

Please fill in: log10 of IC50 reported for Cn1nccc1CCOc1nc(N2C[C@H]3CC[C@@H](C2)N3)c2cnc(-c3cccc4cccc(Cl)c34)c(F)c2n1 [Example 144] = 0.23

Please fill in: log10 of IC50 reported for C#Cc1cccc2cc(O)cc(-c3ncc4c(N5C[C@H]6CC[C@@H](C5)N6)ncnc4c3F)c12 [Example 244] = -2.38

Please fill in: log10 of IC50 reported for CN(C)c1nc(N2CC3CCC(C2)N3)c2cnc(-c3cc(O)cc4ccccc34)c(F)c2n1 [Example 184] = 0.30

Please fill in: log10 of IC50 reported for C[C@H](N)COc1nc(N2CC3CCC(C2)N3)c2cnc(-c3cccc4cccc(Cl)c34)c(F)c2n1 [Example 374, bis(2,2,2-trifluoroacetate)] = -0.46

Please fill in: log10 of IC50 reported for Fc1c(-c2cccc3cccc(Cl)c23)ncc2c(N3C[C@H]4CC[C@@H](C3)N4)nc(OCCC3CC(F)(F)C3)nc12 [Example 129] = 0.61

====

- Measured On: KRas G12D (Homo sapiens (Human), UniProt P01116, G12D)
- Protocol Summary: KRas G12D Surface Plasmon Resonance (SPR) Binding Assay
- Setup Conditions: Biacore T200, immobilized biotinylated KRAS protein, 1:1 binding model
- Sequence (P01116-2 other isoform, or with tags, fused parts or gaps G12D): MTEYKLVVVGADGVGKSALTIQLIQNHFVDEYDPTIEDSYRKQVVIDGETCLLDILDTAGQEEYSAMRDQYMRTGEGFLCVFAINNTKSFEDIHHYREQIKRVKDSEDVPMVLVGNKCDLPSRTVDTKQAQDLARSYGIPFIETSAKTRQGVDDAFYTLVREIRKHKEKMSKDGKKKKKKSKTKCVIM
Endpoint Label: pKd
// returns pKd (minus log10 of molar concentration), number only

Please fill in: pKd reported for Cc1c(-c2cc(O)cc3ccccc23)ncc2c(N3C[C@H]4CC[C@@H](C3)N4)nc(OC[C@@H]3CCCN3C)nc12 = 7.12

Please fill in: pKd reported for Oc1cc(-c2ncc3c(N4C[C@H]5CC[C@@H](C4)N5)nc(OCc4cccnc4)nc3c2F)c2ccccc2c1 = 6.05

Please fill in: pKd reported for Cn1ccnc1CCOc1nc(N2C[C@H]3CC[C@@H](C2)N3)c2cnc(-c3cccc4ccc(F)cc34)c(F)c2n1 = 6.01

Please fill in: pKd reported for Cc1cccnc1CCOc1nc(N2C[C@H]3CC[C@@H](C2)N3)c2cnc(-c3cc(O)cc4ccccc34)c(F)c2n1 = 6.35

Please fill in: pKd reported for OCCOc1nc(N2C[C@H]3CC[C@@H](C2)N3)c2cnc(-c3cc(O)cc4ccccc34)c(F)c2n1 = 6.28

Please fill in: pKd reported for CN1CCC[C@H]1COc1nc(N2CC3CCC(Cl)(C2)N3)c2cnc(-c3cc(O)cc4ccccc34)c(F)c2n1 (some centres unmarked) [Example 160, bis(2,2,2-trifluoroacetate)] = 9.52

Please fill in: pKd reported for Fc1c(-c2cccc3cccc(Cl)c23)ncc2c(N3C[C@H]4CC[C@@H](C3)N4)nc(OCC3COC3)nc12 = 5.36

Please fill in: pKd reported for CC(=O)N1CCC(Oc2nc(N3C[C@H]4CC[C@@H](C3)N4)c3cnc(-c4cc(O)cc5ccccc45)c(F)c3n2)CC1 = 6.43

Please fill in: pKd reported for CN1CCC[C@H]1CCOc1nc(N2C[C@H]3CC[C@@H](C2)N3)c2cnc(-c3cc(O)cc4ccccc34)c(F)c2n1 = 7.47

Please fill in: pKd reported for CN1CCC[C@H]1COc1nc(N2C[C@H]3CC[C@@H](C2)N3)c2cnc(-c3cncc4cccc(Cl)c34)c(F)c2n1 = 6.35

Please fill in: pKd reported for CN(C)CCOc1nc(N2C[C@H]3CC[C@@H](C2)N3)c2cnc(-c3cc(O)cc4ccccc34)c(F)c2n1 = 8.51

Please fill in: pKd reported for CO[C@@H]1C[C@@H](COc2nc(N3C[C@H]4CC[C@@H](C3)N4)c3cnc(-c4cccc5cccc(Cl)c45)c(F)c3n2)N(C)C1 = 6.92

Please fill in: pKd reported for O[C@@H]1C[C@@H]2CN(c3nc(OCC45CCCN4CCC5)nc4c(F)c(-c5cccc6cccc(Cl)c56)ncc34)C[C@H]1N2 = 9.40

Please fill in: pKd reported for COc1nc(N2C[C@H]3CC[C@@H](C2)N3)c2cnc(-c3cc(O)cc4ccccc34)c(F)c2n1 = 5.64

====

- Measured On: KRas G12D (Homo sapiens (Human), UniProt P01116, G12D)
- Protocol Summary: KRas G12D Binding Assay (TR-FRET displacement of Cy5 labelled tracer)
- Setup Conditions: GDP-loaded KRAS G12D (amino acids 1:169), 60 minute incubation at 22° C.
pIC50: −log10 of the molar value. Where a name gives a salt, the structure may show the parent alone.
Would you mind classing the entries by pIC50? Ranges: low group = under 7, middle group = from 7 up to 8, high group = 8 and over

Query: Field: class (pIC50) — entry: CC1CCc2cccc(-c3ncc4c(N5CC6CCC(C5)N6)nc(OC[C@@]56CCCN5C[C@H](F)C6)nc4c3F)c21 (stereo partly shown)
Reply: middle group

Query: Field: class (pIC50) — entry: Fc1c(-c2cccc3cccc(Cl)c23)ncc2c(N3CC4CCC(C3)N4)nc(OCC34CCCN3C[C@H](F)C4)nc12 (stereo partly shown) [Example 226, bis-hydrochloride]
Reply: middle group

Query: Field: class (pIC50) — entry: O=C(OC[C@H]1CC[C@@]2(COc3nc(N4CC5CCC(C4)N5)c4cnc(-c5cccc6cccc(Cl)c56)c(F)c4n3)CCCN12)N1CCCC1
Reply: high group

Query: Field: class (pIC50) — entry: O=C(OC[C@H]1CC[C@@]2(COc3nc(N4CC5CCC(C4)N5)c4cnc(-c5cccc6cccc(Cl)c56)c(F)c4n3)CCCN12)N1CCCCC1
Reply: high group

Query: Field: class (pIC50) — entry: Oc1cc(-c2ncc3c(N4C[C@H]5CC[C@@H](C4)N5)nc(OCCc4ccccc4F)nc3c2F)c2ccccc2c1
Reply: low group

Query: Field: class (pIC50) — entry: CN1CCC[C@H]1COc1nc(N2CC3CCC(C(N)=O)(C2)N3)c2cnc(-c3cc(O)cc4ccccc34)c(F)c2n1 (stereo partly shown) [Example 159, bis(2,2,2-trifluoroacetate)]
Reply: low group

Query: Field: class (pIC50) — entry: C#Cc1cccc2cccc(-c3ncc4c(N5CC6CCC(C5)N6)ncnc4c3F)c12
Reply: low group

Query: Field: class (pIC50) — entry: CO[C@@H]1C[C@@H]2CN(c3nc(OC[C@@]45CCCN4C[C@H](F)C5)nc4c(F)c(-c5cccc6cccc(Cl)c56)ncc34)C[C@H]1N2
Reply: low group

Query: Field: class (pIC50) — entry: OCCCOc1nc(N2C[C@H]3CC[C@@H](C2)N3)c2cnc(-c3cc(O)cc4ccccc34)c(F)c2n1
Reply: low group

Query: Field: class (pIC50) — entry: Fc1ccc2cccc(-c3ncc4c(N5C[C@H]6CC[C@@H](C5)N6)nc(OCC56CCCN5CCC6)nc4c3F)c2c1F
Reply: high group

Query: Field: class (pIC50) — entry: CCc1cccc2cc(O)cc(-c3ncc4c(N5C[C@H]6CC[C@@H](C5)N6)nc(OC[C@]56CCCN5[C@@H](COC(=O)NC)CC6)nc4c3F)c12
Reply: high group

====

- Measured On: KRas G12D (Homo sapiens (Human), UniProt P01116, G12D)
- Protocol Summary: KRas G12D Binding Assay (TR-FRET displacement of Cy5 labelled tracer)
- Setup Conditions: GDP-loaded KRAS G12D (amino acids 1:169), 60 minute incubation at 22° C.
Give measured pIC50 for each item. Keep answers brief.
// returns pIC50 (minus log10 of molar concentration), number only

Please fill in: pIC50 reported for Oc1cc(-c2ncc3c(N4C[C@H]5CC[C@@H](C4)N5)nc(OCC45CCCN4C(CF)CC5)nc3c2F)c2c(Cl)cccc2c1 (stereo partly drawn) = 8.38

Please fill in: pIC50 reported for CN1C[C@H](OC(=O)NCCOCc2ccc(O)cc2)C[C@H]1COc1nc(N2C[C@H]3CC[C@@H](C2)N3)c2cnc(-c3cccc4cccc(Cl)c34)c(F)c2n1 = 6.97

====

- Measured On: KRas G12D (Homo sapiens (Human), UniProt P01116, G12D)
- Protocol Summary: KRas G12D Surface Plasmon Resonance (SPR) Binding Assay
- Setup Conditions: Biacore T200, immobilized biotinylated KRAS protein, 1:1 binding model
pKd: −log10 of the molar value. Structures can show the parent of a compound that is named as a salt.
Label scheme for pKd: lower than 6 is class 0, 6 and above is class 1.

Query: Dear colleague, could you confirm whether Cc1ccc2[nH]ncc2c1-c1ncc2c(N3C[C@H]4CC[C@@H](C3)N4)nc(OCCc3nccn3C)nc2c1F [Example 88] has pKd at or above 6?
Reply: class 0

Query: Dear colleague, could you confirm whether CN1CCC[C@H]1COc1nc(N2C[C@H]3CC[C@@H](C2)N3)c2cnc(-c3cc(O)cc4ccccc34)cc2n1 [Example 1, tris-hydrochloride salt] has pKd at or above 6?
Reply: class 1

Query: Dear colleague, could you confirm whether OC[C@H](O)COc1nc(N2C[C@H]3CC[C@@H](C2)N3)c2cnc(-c3cccc4cccc(Cl)c34)c(F)c2n1 [Example 55] has pKd at or above 6?
Reply: class 0

Query: Dear colleague, could you confirm whether C[C@H](CN(C)C)Oc1nc(N2C[C@H]3CC[C@@H](C2)N3)c2cnc(-c3cc(O)cc4ccccc34)c(F)c2n1 [Example 17] has pKd at or above 6?
Reply: class 0

Query: Dear colleague, could you confirm whether Oc1cc(-c2ncc3c(N4C[C@H]5CC[C@@H](C4)N5)nc(OCc4ccccc4F)nc3c2F)c2ccccc2c1 [Example 217] has pKd at or above 6?
Reply: class 0

Query: Dear colleague, could you confirm whether CC(C)N1CCC[C@H]1COc1nc(N2C[C@H]3CC[C@@H](C2)N3)c2cnc(-c3cccc4cccc(Cl)c34)c(F)c2n1 [Example 29] has pKd at or above 6?
Reply: class 1

Query: Dear colleague, could you confirm whether C#Cc1cccc2cccc(-c3ncc4c(N5C[C@H]6CC[C@@H](C5)N6)nc(OCC56CCCN5CCC6)nc4c3F)c12 [Example 179] has pKd at or above 6?
Reply: class 1
